B1: library; a variant is named by its letters at N, in order (parent)
chain: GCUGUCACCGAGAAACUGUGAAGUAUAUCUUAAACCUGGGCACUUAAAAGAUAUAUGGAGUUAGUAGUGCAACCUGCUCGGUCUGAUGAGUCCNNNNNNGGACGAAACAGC

Variants of: B1
Protocol Details: FACS-Seq fitted mean relative fluorescence mCherry/BFP with ligand (log10 relative fluorescence); HEK293T; ligand: cyclic di-GMP (c-di-GMP-II aptamer); ligand concentration (+) FACS-Seq: 1 mM; higher = higher reporter protein expression
Test Context: ligand present: yes
Assign met to entries whose FACS-Seq fitted mean (log10) meets or exceeds -0.1; assign not met to the rest.

| Mutant Designation | Label |
| --- | --- |
| CGGUCC | met |
| ACGAUU | not met |
| CUUUCC | met |
| CCCUAG | not met |
| CUCAGA | met |
| CCCGUC | not met |
| AAAAGG | not met |
| CGCUUU | met |

Exam item: decide whether the reported FACS-Seq fitted mean (log10) for "GCCGAU" is at least -0.1.
not met

Next variant up: "UUGUAG"
met

Here is the next variant: "ACCAUA"
met
